Each entry below carries its recorded IC50.
System: NF-kB
protocol-details: NF-kB promoter-driven firefly luciferase reporter assay in SH-5YSY clone C1
Assay type: cell-based, human
conditions: Homo sapiens; SH-5YSY clone C1, NF-kB luciferase reporter

[[record]]
compound = "COc1ccccc1C1CCN(C(=O)NCCc2ccccc2)CC1"
meas_value = "0.067 µM"


**Query** Please look at `COc1ccc(-c2cn3c4c(sc3n2)CCCC4)cc1` and tell me its recorded IC50 on NF-kB.
**Result** 0.65 µM

**Query** Please look at `O=c1[nH]c(/C=C/c2ccc(O)cc2)nc2ccccc12` and tell me its recorded IC50 on NF-kB.
**Result** 0.064 µM

**Query** Please look at `Cc1ccc(/C=C2/SC(=S)N(CCC(=O)Nc3ccc(O)cc3)C2=O)cc1` and tell me its recorded IC50 on NF-kB.
**Result** 1310 µM

**Query** Please look at `COc1ccc(-c2csc(Nc3ccc(N(C)C)cc3)n2)cc1` and tell me its recorded IC50 on NF-kB.
**Result** 0.144 µM

**Query** Please look at `COc1ccccc1-c1nc(-c2ccccc2Cl)no1` and tell me its recorded IC50 on NF-kB.
**Result** 0.079 µM

**Query** Please look at `Cc1ccc2nc(-c3ccc(NC(=O)COC(=O)c4cncc(Br)c4)cc3)sc2c1` and tell me its recorded IC50 on NF-kB.
**Result** 0.393 µM

**Query** Please look at Clc1ccc(C2NN=C(c3ccccc3)S2)cc1 (stereo not shown) and tell me its recorded IC50 on NF-kB.
**Result** 4.06 µM

**Query** Please look at `O=C(/C=C\Nc1cc(Cl)ccc1O)c1ccc2c(c1)OCO2` and tell me its recorded IC50 on NF-kB.
**Result** 0.213 µM

**Query** Please look at CCC(=O)NC(c1cccc([N+](=O)[O-])c1)c1ccc2cccnc2c1O (stereo not shown) and tell me its recorded IC50 on NF-kB.
**Result** 3.7 µM

**Query** Please look at `S=C(c1ccc(-c2ccc(Cl)c(Cl)c2)o1)N1CCOCC1` and tell me its recorded IC50 on NF-kB.
**Result** 5.19 µM

**Query** Please look at `CCOC(=O)CC[C@H](NC(=O)c1ccc(NCc2cnc3nc(N)nc(N)c3c2C)cc1)C(=O)OCC` and tell me its recorded IC50 on NF-kB.
**Result** 0.345 µM

**Query** Please look at `O=C(CCN1C(=O)/C(=C\C=C\c2ccccc2)SC1=S)Nc1cc(Cl)ccc1O` and tell me its recorded IC50 on NF-kB.
**Result** 146 µM

**Query** Please look at `Fc1ccc(-c2cn3ccsc3n2)cc1` and tell me its recorded IC50 on NF-kB.
**Result** 0.382 µM

**Query** Please look at `O=C(O)c1ccc(-c2nnc(-c3ccccc3Cl)o2)cc1` and tell me its recorded IC50 on NF-kB.
**Result** 0.337 µM

**Query** Please look at `Brc1ccc(-c2cn3ccccc3n2)s1` and tell me its recorded IC50 on NF-kB.
**Result** 0.094 µM

**Query** Please look at `O=C1/C(=C\c2ccc(O)cc2)Sc2ccccc21` and tell me its recorded IC50 on NF-kB.
**Result** 3.72 µM

**Query** Please look at `S=C(c1ccc(-c2cccc(Cl)c2)o1)N1CCOCC1` and tell me its recorded IC50 on NF-kB.
**Result** 3.4 µM

Just for reference, patent US10953017B2 is where these values come from.
